Conditions: 298.15 K; 101.33 kPa; Liquid; Sing-around technique in a fixed-path interferometer
recordedMetric: speed of sound (m/s)

What does the data say about its speed of sound? Entry: Cc1ccncc1 [4-methylpyridine]
1431.5

Item: Cc1ccccn1 [2-methylpyridine]
1380.1

Quick one: Cc1ccccc1N [2-methylaniline]
1602.6

Lookup Cc1cccnc1 [3-methylpyridine]
1424

Same lookup for C1CCOCC1 [tetrahydropyran] , please.
1269.9

----------
Settings: 298.15 K; 101.33 kPa; Liquid; Vibrating tube method
recordedMetric: mass density (kg/m3)

# query: mass density of entry Cc1cccnc1
952.002

Same thing, different molecule: Cc1ccccn1
939.802

Item: Cc1ccccc1N
994.351

Entry to check: Cc1ccncc1
950.179

Another: C1CCOCC1 [tetrahydropyran]
879.136
